List of log10 of IC50 values.
target: hADORA1/CHO (hA1 expressing) cells (Homo sapiens (Human), UniProt P30542); assay: cell-based; conditions: FLIPR inhibition, 10 μM adenosine, read-out: cAMP & FLIPR IC50 (nM) hA1
Sequence (P30542 whole entry): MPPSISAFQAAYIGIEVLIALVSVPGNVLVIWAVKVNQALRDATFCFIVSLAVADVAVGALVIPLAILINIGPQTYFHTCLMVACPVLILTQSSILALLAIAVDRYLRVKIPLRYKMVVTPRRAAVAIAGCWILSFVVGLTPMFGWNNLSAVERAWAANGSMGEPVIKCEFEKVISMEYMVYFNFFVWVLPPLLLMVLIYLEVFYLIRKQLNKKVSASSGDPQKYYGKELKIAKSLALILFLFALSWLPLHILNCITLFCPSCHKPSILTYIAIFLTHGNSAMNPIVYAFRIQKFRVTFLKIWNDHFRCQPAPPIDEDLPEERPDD
Reminder: these figures are log10 of reported IC50, in nM before transformation.

Record excerpt, results attached:
>  <Molecule>
COC[C@H](C)NC(=O)c1nc(-c2ccc3ncc(C)n3c2)c(-c2ncco2)nc1N

>  <Subject of test>
hADORA1/CHO (hA1 expressing) cells (Homo sapiens (Human), UniProt P30542)

>  <Test value>
3.69

$$$$
>  <Molecule>
Cc1scnc1CNC(=O)c1nc(-c2ccc3nccn3c2)c(-c2ncco2)nc1N

>  <Subject of test>
hADORA1/CHO (hA1 expressing) cells (Homo sapiens (Human), UniProt P30542)

>  <Test value>
3.47

$$$$
>  <Molecule>
Cn1cc(-c2nc(CNC(=O)c3c(F)cccc3C(F)(F)F)c(N)nc2-c2ccc(F)cc2)ccc1=O

>  <Subject of test>
hADORA1/CHO (hA1 expressing) cells (Homo sapiens (Human), UniProt P30542)

>  <Test value>
1.99

$$$$
>  <Molecule>
CO[C@H]1C[C@@H](NC(=O)c2nc(-c3ccc4ncc(C)n4c3)c(-c3ncco3)nc2N)C1

>  <Subject of test>
hADORA1/CHO (hA1 expressing) cells (Homo sapiens (Human), UniProt P30542)

>  <Test value>
4.00

$$$$
>  <Molecule>
Cc1cnc2ccc(-c3nc(C(=O)NC(C)C4CCCO4)c(N)nc3-c3ncco3)cn12 (single isomer, unassigned; isomer 4) [Example 258]

>  <Subject of test>
hADORA1/CHO (hA1 expressing) cells (Homo sapiens (Human), UniProt P30542)

>  <Test value>
3.40

$$$$
>  <Molecule>
Cc1nc(CNC(=O)c2nc(-c3ccc4nccn4c3)c(-c3ncco3)nc2N)cs1

>  <Subject of test>
hADORA1/CHO (hA1 expressing) cells (Homo sapiens (Human), UniProt P30542)

>  <Test value>
4.00

$$$$
>  <Molecule>
Nc1nc(-c2ncco2)c(-c2ccc3nccn3c2)nc1C(=O)NCc1cscn1

>  <Subject of test>
hADORA1/CHO (hA1 expressing) cells (Homo sapiens (Human), UniProt P30542)

>  <Test value>
4.00

$$$$

## Input // returns reported log10 of IC50 for input Cn1cc(-c2nc(CNC(=O)c3ncccc3OC(F)F)c(N)nc2-c2ccc(F)cc2)ccc1=O
## Output 1.26

---

List of IC50 values.
molecular target: hADORA1/CHO (hA1 expressing) cells (Homo sapiens (Human), UniProt P30542); test: cell-based; conditions: FLIPR inhibition, 10 μM adenosine, read-out: cAMP & FLIPR IC50 (nM) hA1
In your response, put the unit directly after the numeric value.

>  <Smiles entry>
Cc1cnc2ccc(-c3nc(C(=O)N[C@@H]4CCN(C)C4)c(N)nc3-c3ccc(F)cc3)cn12

>  <Test value>
10000 nM

$$$$
>  <Smiles entry>
COC[C@H]1CCCN1C(=O)c1nc(-c2ccc3ncc(C)n3c2)c(-c2ccc(F)cc2)nc1N

>  <Test value>
294 nM

$$$$
>  <Smiles entry>
Cc1cnc2ccc(-c3nc(C(=O)N[C@H]4C[C@H](N(C)C)C4)c(N)nc3-c3ncco3)cn12

>  <Test value>
865 nM

$$$$
>  <Smiles entry>
Cc1cnc2ccc(-c3nc(C(=O)NCC4(N(C)C)CC4)c(N)nc3-c3ccc(F)cc3)cn12

>  <Test value>
10000 nM

$$$$

# context switch: different molecule, same IC50
## Input // returns reported IC50 for input COCCn1cc(-c2nc(C(=O)NCc3c(F)cccc3F)c(N)nc2-c2ncco2)ccc1=O
## Output 272 nM

---

target: hA2b/CHO (Homo sapiens (Human), UniProt P29275); assay: cAMP inhibition assay in hA2b/CHO cells, 10 μM adenosine; format: cell-based; conditions: read-out: cAMP & FLIPR IC50 (nM) hA2b
Sequence (P29275 whole entry): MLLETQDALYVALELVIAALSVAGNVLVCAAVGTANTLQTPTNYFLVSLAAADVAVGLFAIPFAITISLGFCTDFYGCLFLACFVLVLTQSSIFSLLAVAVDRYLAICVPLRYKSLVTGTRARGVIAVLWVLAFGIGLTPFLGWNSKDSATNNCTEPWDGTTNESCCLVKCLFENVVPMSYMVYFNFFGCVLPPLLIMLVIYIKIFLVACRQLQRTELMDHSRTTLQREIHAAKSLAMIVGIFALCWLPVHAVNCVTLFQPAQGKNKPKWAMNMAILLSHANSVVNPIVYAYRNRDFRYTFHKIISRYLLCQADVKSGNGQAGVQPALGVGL
Measurement type: IC50 (nM)
Please respond with the number in nM and leave the unit unwritten.

>  <Compound>
CNc1cccc(CNC(=O)c2nc(-c3ccc(=O)n(C)c3)c(-c3ncco3)nc2N)n1 [Example 23]

>  <Test value>
880

$$$$
>  <Compound>
Nc1nc(-c2ncco2)c(-c2ccc3ncnn3c2)nc1C(=O)NCc1ncccc1F [Example 100]

>  <Test value>
312

$$$$
>  <Compound>
CCNC(=O)c1nc(-c2ccc3ncc(C)n3c2)c(-c2ncco2)nc1N [Example 132]

>  <Test value>
258

$$$$
>  <Compound>
Cn1cc(-c2nc(C(=O)NC(CO)c3c(F)cccc3F)c(N)nc2-c2ncco2)ccc1=O (stereo not drawn) [Example 98]

>  <Test value>
126

$$$$
>  <Compound>
COC[C@@H](C)NC(=O)c1nc(-c2ccc3ncc(C)n3c2)c(-c2ncco2)nc1N [Example 159]

>  <Test value>
1640

$$$$

## Input // returns reported IC50 for input COC1CCC(NC(=O)c2nc(-c3ccc4ncc(C)n4c3)c(-c3ncco3)nc2N)CC1 (stereo not drawn) [Example 249]
## Output 423

## Input // returns reported IC50 for input CNc1cccnc1CNC(=O)c1nc(-c2ccc(=O)n(C)c2)c(-c2ncco2)nc1N [Example 46]
## Output 1620

## Input // returns reported IC50 for input Cc1cnc2ccc(-c3nc(C(=O)NCCN(C)c4ccccn4)c(N)nc3-c3ncco3)cn12 [Example 240]
## Output 521

## Input // returns reported IC50 for input Nc1nc(-c2ncco2)c(-c2ccc3nncn3c2)nc1C(=O)NCc1c(F)cccc1F [Example 34]
## Output 330

## Input // returns reported IC50 for input CN1CCCC1CNC(=O)c1nc(-c2ccc3ncc(Cl)n3c2)c(-c2ncco2)nc1N (stereo in doubt) [Cmpd. 209]
## Output 1260

## Input // returns reported IC50 for input Cc1cnc2ccc(-c3nc(C(=O)NCC4(N(C)C)CC4)c(N)nc3-c3ccc(F)cc3)cn12 [Example 154]
## Output 1150

## Input // returns reported IC50 for input CC(NC(=O)c1nc(-c2ccc(=O)n(C)c2)c(-c2ncco2)nc1N)c1c(F)cccc1F (single isomer, unassigned) [Example 40]
## Output 1350

---

List of IC50 values.
biological target: hA2b/CHO (Homo sapiens (Human), UniProt P29275); assay: cAMP inhibition assay in hA2b/CHO cells, 10 μM adenosine; type: cell-based; settings: read-out: cAMP & FLIPR IC50 (nM) hA2b

Record excerpt, results attached:
>  <Compound>
CN(C)c1ccc(F)c(CNC(=O)c2nc(-c3ccc(=O)n(C)c3)c(-c3ncco3)nc2N)c1 [Example 27]

>  <IC50>
≥ 10000 nM

$$$$
>  <Compound>
Cc1cc(-c2nc(C(=O)Nc3ccccc3OC(F)F)c(N)nc2-n2ccc(C)n2)cc(N)n1 [Example 60]

>  <IC50>
≥ 10000 nM

$$$$
>  <Compound>
CN(C)c1ccnc(CNC(=O)c2nc(-c3ccc(=O)n(C)c3)c(-c3ncco3)nc2N)n1 [Example 25]

>  <IC50>
≥ 10000 nM

$$$$

## Input // returns reported IC50 for input Cc1ccn(-c2nc(N)c(C(=O)NC[C@H]3CCCN3C)nc2-c2ccc3ncc(C)n3c2)n1 [Example 201-2]
## Output > 10000 nM

## Input // returns reported IC50 for input Cc1cc(-c2nc(C(=O)NCc3ccccc3F)c(N)nc2-c2ccc(F)cc2)cc(C)n1 [Example 78]
## Output ≥ 10000 nM

## Input // returns reported IC50 for input COc1ncccc1CNC(=O)c1nc(-c2cc(C)nc(C)c2)c(-c2ccc(F)cc2)nc1N [Example 66]
## Output ≥ 10000 nM

## Input // returns reported IC50 for input COc1cccc(CNC(=O)c2nc(-c3ccc(=O)n(C)c3)c(-c3ncco3)nc2N)n1 [Example 17]
## Output ≥ 10000 nM

---

molecular target: hA2b/CHO (Homo sapiens (Human), UniProt P29275); experiment: cAMP inhibition assay in hA2b/CHO cells, 10 μM adenosine; type: cell-based; details: read-out: cAMP & FLIPR IC50 (nM) hA2b;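 note: cells exposed to compound 30 min at 37 °C, then stimulated with adenosine a further 30 min, cAMP read after 60 min at room temperature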
List of IC50 values.

>  <Smiles entry>
Cn1cc(-c2nc(C(=O)NCc3cccc(N4CCC4)n3)c(N)nc2-c2ncco2)ccc1=O

>  <Test value>
≥ 10000 nM

$$$$

## Input // returns reported IC50 for input COC[C@H]1CCCN1C(=O)c1nc(-c2ccc3ncc(C)n3c2)c(-c2ccc(F)cc2)nc1N
## Output > 10000 nM

## Input // returns reported IC50 for input COc1ccc(F)cc1CNC(=O)c1nc(-c2cc(C)nc(C)c2)c(-c2ccc(F)cc2)nc1N
## Output ≥ 10000 nM
